Provide the recorded growth for the entries that follow.
Test system: ACHN renal
Assay: NCI-60 one-dose screen, 48 h (100 = growth as untreated, 0 = no growth, -100 = all killed)
Details: 10 µM unless noted
About 83,000 compounds went through this panel and 20% of them were active in at least one assay; those are over-represented in the sample as a whole.
Numbers only, in %.

Completed entries (count: 5):
[
  {
    "MOLECULE_SMILES": "C[C@@H]1CN(c2ccc3ncc(C#Cc4cncc(C(=O)Nc5ccc(CN6CCN(C)CC6)c(C(F)(F)F)c5)c4)n3n2)C[C@H](C)O1",
    "UNIT_DESCRIPTOR": "%",
    "ENDPOINT_RESULT": -94
  },
  {
    "MOLECULE_SMILES": "CC(=O)Nc1cc(F)cc(-c2ccc3[nH]cc(-c4ccccc4)c3n2)c1",
    "UNIT_DESCRIPTOR": "%",
    "ENDPOINT_RESULT": 15.9
  },
  {
    "MOLECULE_SMILES": "O=C(Nc1nc2ccc(O)cc2s1)c1cccc(C(F)(F)F)c1",
    "UNIT_DESCRIPTOR": "%",
    "ENDPOINT_RESULT": 53
  },
  {
    "MOLECULE_SMILES": "N#Cc1c(-c2ccc(Cl)cc2)nc(SCc2ccccc2)nc1N1CCNCC1",
    "UNIT_DESCRIPTOR": "%",
    "ENDPOINT_RESULT": 47.8
  },
  {
    "MOLECULE_SMILES": "Nc1c(C(=O)Nc2ccc(C(F)(F)F)cc2)sc2nc(-c3cnccn3)cc(-c3cccs3)c12",
    "UNIT_DESCRIPTOR": "%",
    "ENDPOINT_RESULT": 43.3
  }
]

Value sought for every listed compound: growth.
1. O=C1[C@H]2Cc3c([nH]c4ccccc34)[C@@H](c3ccc(Br)cc3)N2C(=O)CN1C1CCN(Cc2ccccc2)CC1
2. O=C(N/N=C/c1ccc([N+](=O)[O-])o1)c1[nH]c2ccc(Br)cc2c1-c1ccccc1

1: 30.6; 2: 16.1

Could I get growth for every one of these entries?
1. Cc1nc2cnc(N)c(C#Cc3cncc(C(=O)Nc4ccc(Cl)c(C(F)(F)F)c4)c3)c2nc1C
2. Cn1ccnc1C(=O)/C=C/c1ccc(NC(=O)Nc2ccc(F)cc2)cc1

1: 30.3; 2: 49.5

----------
Test system: OVCAR-5 ovarian
Assay: NCI-60 one-dose screen, 48 h (100 = growth as untreated, 0 = no growth, -100 = all killed)
Conditions: 10 µM unless noted
This is part of a sample that, as a whole, favours compounds with a hit. Of some 83,000 tested, about 20% had one in any assay.
Binary call on growth: True from 50% upward, False beneath that.

For this compound, is measured growth 50% or higher? CC(=O)Nc1cc(F)cc(-c2ccc3[nH]cc(-c4ccccc4)c3n2)c1
False

Say whether CS(=O)(=O)c1ccc(-c2nc3ccccn3c2C=Nc2ccc(Cl)cc2)cc1 shows growth of 50% or more.
True

Is the recorded value of growth equal to or greater than 50% for this compound? Cc1[nH]nc2ncc(C#Cc3cncc(C(=O)Nc4ccc(CN5CCN(C)CC5)c(C(F)(F)F)c4)c3)cc12
False

Does the compound CS(=O)(=O)c1ccc(-c2nc3ccccn3c2/C=N/Nc2nc(-c3ccc(Cl)cc3)cs2)cc1 have recorded growth that is 50% or more?
True

// inclusive: growth at least 50%? input: COc1cccc(NC2=CC(=O)C(C)=C(C)C2=O)c1
True

Is growth for Nc1cc(-c2c[nH]c3ccc(F)cc23)nc2cc(-c3c[nH]c4ccc(F)cc34)nn12 at or above 50%?
True

----------
Assignment: determine reported growth for the given compounds.
Tested on: MDA-MB-435 melanoma
Experiment: NCI-60 one-dose screen, 48 h (100 = growth as untreated, 0 = no growth, -100 = all killed)
Settings: 10 µM unless noted
Compounds without any hit were thinned out: in the full panel of roughly 83,000, 20% have a hit.
One number for each entry, in %.

Example entries begin here.
[
  {
    "MOLECULE_SMILES": "N#Cc1c(-c2ccc(F)cc2)nc2c(C#N)c(Nc3ccccc3)nn2c1N",
    "TARGET_UNDER_TEST": "MDA-MB-435 melanoma",
    "growth (%)": 95.5
  },
  {
    "MOLECULE_SMILES": "N#Cc1nc(-c2ccccc2)oc1N1CC[C@@H](CO)C1",
    "TARGET_UNDER_TEST": "MDA-MB-435 melanoma",
    "growth (%)": 99
  },
  {
    "MOLECULE_SMILES": "Cc1nc(-c2cc3ccccc3oc2=O)ccc1C(=O)/C=C/c1ccc(N2CCOCC2)cc1",
    "TARGET_UNDER_TEST": "MDA-MB-435 melanoma",
    "growth (%)": -21.1
  },
  {
    "MOLECULE_SMILES": "NC(=O)c1cc(-c2ccc3ncnc(N4CCc5cc(F)c(Cl)cc54)c3c2)cnc1N",
    "TARGET_UNDER_TEST": "MDA-MB-435 melanoma",
    "growth (%)": 25.2
  },
  {
    "MOLECULE_SMILES": "Nc1cc(-c2c[nH]c3ccc(F)cc23)nc2cc(-c3c[nH]c4ccc(F)cc34)nn12",
    "TARGET_UNDER_TEST": "MDA-MB-435 melanoma",
    "growth (%)": 64.2
  }
]

Next up:
// assay MDA-MB-435 melanoma, entry O=C(CN1C(=O)/C(=C/c2ccccc2)SC1=S)N1CCOCC1 , growth value = 96.2

----------
System: HOP-92 NSCLC
Experiment: NCI-60 one-dose screen, 48 h (100 = growth as untreated, 0 = no growth, -100 = all killed)
Settings: 10 µM unless noted
The panel holds about 83,000 compounds, 20% with a hit somewhere; the sample as a whole holds those more often.
VALUE_TYPE: growth (%)
Give bare numbers, in %.

[
  {
    "MOLECULE_SMILES": "CS(=O)(=O)c1ccc(-c2nc3ccccn3c2-c2nc3ccc([N+](=O)[O-])cc3[nH]2)cc1",
    "TARGET_UNDER_TEST": "HOP-92 NSCLC",
    "UNIT_DESCRIPTOR": "%",
    "growth": 93.7
  },
  {
    "MOLECULE_SMILES": "COc1ccc(-c2nn3c(-c4ccccc4F)nnc3s2)cc1",
    "TARGET_UNDER_TEST": "HOP-92 NSCLC",
    "UNIT_DESCRIPTOR": "%",
    "growth": 76.9
  },
  {
    "MOLECULE_SMILES": "C/C(=C(/c1ccc(Cl)cc1)c1ccc(OCCN)cc1)c1ccc(C)cc1",
    "TARGET_UNDER_TEST": "HOP-92 NSCLC",
    "UNIT_DESCRIPTOR": "%",
    "growth": 87.2
  }
]

Shifting focus to the molecule that follows.
Documented growth of C#C[C@]1(O)CC[C@H]2[C@@H]3CC=C4c5sc(-c6ccc(F)cn6)nc5CC[C@]4(C)[C@H]3CC[C@@]21C : 49.2

----------
Test system: SK-MEL-28 melanoma
Experiment: NCI-60 one-dose screen, 48 h (100 = growth as untreated, 0 = no growth, -100 = all killed)
Conditions: 10 µM unless noted
About 83,000 compounds went through this panel and 20% of them were active in at least one assay; those are over-represented in the sample as a whole. The source made the active and inactive calls. The calls were made as follows: active = growth percent below 10; inactive = the rest.
Kindly supply the reported growth values for the records listed here.

Known growth results, listed for orientation:
[
  {
    "COMPOUND": "C#Cc1nc(C2=C(C)C(=O)/C(=N/OC(C)=O)C2)cs1",
    "TARGET_UNDER_TEST": "SK-MEL-28 melanoma",
    "growth": "107% (inactive)"
  },
  {
    "COMPOUND": "O=C(c1ccc(O)cc1)C1[C@H](c2ccc(Cl)cc2)[C@@H](c2ccccc2)NC12C(=O)Nc1ccc(Cl)cc12 (some centres undefined)",
    "TARGET_UNDER_TEST": "SK-MEL-28 melanoma",
    "growth": "76.2% (inactive)"
  },
  {
    "COMPOUND": "O=C(O)CCCCCN1C(=O)/C(=C/c2ccc(O)c(O)c2)SC1=S",
    "TARGET_UNDER_TEST": "SK-MEL-28 melanoma",
    "growth": "102% (inactive)"
  }
]

Continue with the compound presented below.
Tested system SK-MEL-28 melanoma; growth recorded for C=C1CC[C@H]2[C@@](C)(CCC3OC(c4ccc(OCc5cn(C6CC(OC(C)=O)C(OC(C)=O)C(COC(C)=O)O6)nn5)cc4)OC[C@]32C)[C@@H]1/C=C/C1=CCOC1=O (some centres undefined) was 100% (inactive)
